- study_system: Human eIF4E (aa 28-217) / biotin labeled 4G2 peptide (Homo sapiens, UniProt P06730)
- Construct: Human eIF4E (aa 28-217) with a C-terminal His-tag; made in house
- Sequence (P06730 28-217): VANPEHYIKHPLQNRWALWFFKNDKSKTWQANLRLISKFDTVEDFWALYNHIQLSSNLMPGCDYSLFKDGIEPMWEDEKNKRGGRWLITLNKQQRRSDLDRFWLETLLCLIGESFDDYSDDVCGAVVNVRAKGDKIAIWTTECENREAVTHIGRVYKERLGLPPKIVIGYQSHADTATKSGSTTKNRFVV
- assay_details: Human eIF4E/4G2 binding assay (TR-FRET)
- condition_parameters: TR-FRET eIF4E/4G2 peptide binding; 4 hours preincubation with eIF4E at room temperature
pIC50: −log10 of the molar value.
The following compounds are listed with their measured pIC50 values.

Consider the reported pIC50 for these compounds:
                              sample_smiles  experimental_result
0  CC(C)c1nc(Nc2ncc(C(F)(F)F)cc2C(=O)O)sc1-c1ccc(Cl)s1         6.00 to 6.30
1  CC(C)CCc1nc(Nc2ncc(-c3cccs3)cc2C(=O)O)sc1-c1ccc(OC(F)(F)F)cc1               > 6.30
2  CC(C)c1nc(Nc2ncc(C(F)(F)F)cc2C(=O)O)sc1C1=CCCCC1         6.00 to 6.30
3  CC(C)CCc1nc(Nc2cc(C3CCCC3)sc2C(=O)O)sc1-c1ccc(-n2ccccc2=O)cc1               > 6.30
4  CC(C)c1nc(Nc2ncc(C(F)(F)F)cc2C(=O)O)sc1-c1ccccn1               < 6.00

Given the compound CC(C)c1nc(Nc2ncc(C(F)(F)F)cc2C(=O)O)sc1-c1ccc2ccccc2c1 , what is its reported pIC50?
6.00 to 6.30

Given the compound CC(C)c1nc(Nc2ncc(C(F)(F)F)cc2C(=O)O)sc1-c1ccc(OCc2ccccc2)cc1 , what is its reported pIC50?
> 6.30

Given the compound CC(C)c1nc(Nc2ncc(C(F)(F)F)cc2C(=O)O)sc1-c1ccc(Cl)cc1Cl , what is its reported pIC50?
6.00 to 6.30

Given the compound CC(C)CCc1nc(Nc2ncc(C(F)(F)F)cc2C(=O)O)sc1-c1ccc(N2CCOCC2)cc1 , what is its reported pIC50?
< 6.00

----------
- study_system: Human eIF4E (aa 28-217) / biotin labeled 4G2 peptide (Homo sapiens)
- Construct: Human eIF4E (aa 28-217) with a C-terminal His-tag
- assay_details: Human eIF4E/4G2 binding assay (TR-FRET)
- condition_parameters: TR-FRET eIF4E/4G2 peptide binding; 4 hours preincubation with eIF4E at room temperature
- Protocol: Example 3. Compound Testing in Human eIF4E/4G2 Binding Assay Human eIF4E (aa 28-217) with a C-terminal His-tag was expressed in E. coli in inclusion bodies. The protein was solubilized with 8 M urea and purified under denaturing conditions using nickel-charged HisTrap HP columns (GE Healthcare). […] Assay signals were monitored by reading excitation at 340 nm and emission fluorescence at 615 nm and 665 nm on an Envision reader (Perkin Elmer). […] IC50 values were calculated using xLFit program (IDBS). […]
pIC50: −log10 of the molar value.
readout: pIC50

>>> print(df.to_string())
                              sample_smiles  experimental_result
0  COc1ccc(-c2sc(Nc3ncc(C(F)(F)F)cc3C(=O)O)nc2C(C)C)cc1OC               < 6.00

Given the compound CC(C)CCc1nc(Nc2ncc(-c3cccs3)cc2C(=O)O)sc1-c1ccc(Cl)c(Cl)c1 , what is its reported pIC50?
> 6.30

Given the compound COc1ccc(-c2sc(Nc3ncc(C(F)(F)F)cc3C(=O)O)nc2C(C)C)cc1 , what is its reported pIC50?
6.00 to 6.30

Given the compound CC(C)CCc1nc(Nc2ncc(-c3cccs3)cc2C(=O)O)sc1-c1ccccc1 , what is its reported pIC50?
> 6.30

Given the compound CC(C)c1nc(Nc2ncc(C(F)(F)F)cc2C(=O)O)sc1-c1ccc(C(F)(F)F)cc1Cl , what is its reported pIC50?
6.00 to 6.30

Given the compound CC(C)c1nc(Nc2ncc(-c3ccccc3)cc2C(=O)O)sc1C1=CCCCC1 , what is its reported pIC50?
6.00 to 6.30
